B1: glmS ribozyme (parent)
chain: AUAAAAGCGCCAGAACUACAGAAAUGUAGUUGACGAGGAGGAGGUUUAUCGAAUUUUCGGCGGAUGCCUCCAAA

Variants of: B1
Assay: self-cleavage kobs at 2500 uM GlcN6P; higher = faster cleavage; RNA array
Details: with glucosamine-6-phosphate
Fewer inactive variants are shown than the library holds.
READOUT_TYPE: self-cleavage kobs at 2500 uM GlcN6P (s⁻¹)
One number for each entry, in s⁻¹.

Consider the following illustrative entries.
> print(dat)
            change  quantitative.result
 1   A6U A52G U69C             5.25e-05
 2       C16A U31G             0.000177
 3       A48G C70A             4.55e-05
 4       A15G C68U              0.00139
 5       U65G C68U             0.000758
 6       G32C U69G             0.000111
 7       C19A G32C             4.68e-05
 8       G66C C71A             0.000143
 9       U47C U55G              0.00161
10  G29U G32C U56A             7.28e-05

For each of the items listed, what is its self-cleavage kobs at 2500 uM GlcN6P?
1. C34U U69G C71U
2. A39C A42G A52U
3. C58A C67A
4. C16A A39G U69G

["6.74e-05", "6.4e-05", 0.000146, 0.000118]

Assign self-cleavage kobs at 2500 uM GlcN6P to the following record: A14C A48C 4.95e-05
